System: UO-31 renal
Experiment: NCI-60 one-dose screen, 48 h (100 = growth as untreated, 0 = no growth, -100 = all killed)
Conditions: 10 µM unless noted
This is part of a sample that, as a whole, favours compounds with a hit. Of some 83,000 tested, about 20% had one in any assay. Calls of active or inactive are those of the source. The calls were made as follows: active = growth percent below 10; inactive = the rest.
observable: growth

Summary for this compound, `COc1ccc(C)cc1NC(=O)SC(C)C` : growth is 82.9% [100 µM] (inactive)

Summary for this compound, `CC(C)(CC(=O)O)CC(=O)O` : growth is 94% (inactive)

Summary for this compound, `CCCCN(C(=O)CC)c1ccccc1` : growth is 86.7% (inactive)

Summary for this compound, `Oc1cccnc1CN1CCCC1` : growth is 92.1% (inactive)

Summary for this compound, `O=S(=O)(O)c1ccc(O)c(C2CCCCC2)c1` : growth is 91% (inactive)

Summary for this compound, `COc1ccc(Nc2cc(Cl)ccc2C(=O)O)cn1` : growth is 88.9% (inactive)

Summary for this compound, `COc1ccc2c(Cl)cc(NC(=O)Nc3c(C)cccc3C)nc2c1` : growth is 14.4% (inactive)

Summary for this compound, `C=CCS(C)(=O)=O` : growth is 90.3% (inactive)

Summary for this compound, `O=C(NC1CCCCC1)c1ccc(Cl)cc1` : growth is 94.7% (inactive)

Summary for this compound, CS(=O)CC(=N\O)/C(CS(C)=O)=N\O (stereo unspecified) : growth is 85.3% (inactive)

Summary for this compound, `CC(=O)Nc1ncc(S(=O)(=O)c2ccc([N+](=O)[O-])cc2)s1` : growth is 79.4% (inactive)
